molecular target: HIV-1 YU-2 gp120 F210A (HIV-1 YU-2); experiment: SPR
observation type: IC50 (nM)
Give bare numbers, in nM.

Observed IC50 on HIV-1 YU-2 gp120 F210A (HIV-1 YU-2) for peptide 1 (sequence-minimized peptide triazole Ile-Asn-Asn-Ile-X-Trp, X = ferrocenyl-triazolePro) , please.
200

The reported numbers originate from paper PMC4497506.
